Assay: HEK-293 Cancer Cell Toxicity qHTS against the NCATS CANVASS Library (AID 1347355); also: nearly all actives have a fitted effect of over 65% in size
Settings: HEK-293 viability, CellTiter-Glo luminescence, 72 h; series mostly up to 46.1 µM
Excerpt: Natural products and their derivatives continue to be wellsprings of nascent therapeutic potential. […] To address this issue, the Canvass library of natural products was assembled (https://tripod.nih.gov/canvass), in collaboration with academic and industry researchers, for quantitative high-throughput screening (qHTS) across a diverse set of cell-based and biochemical assays. […]
Results filed as inconclusive are left out. Calls of active or inactive are those of the source. Calls follow the shape of the dose curve; as a rule, active = well fitted cell-killing curve with a large enough effect; inconclusive = small, poorly fitted or top-dose-only effect; inactive = flat fitted curve, though single readings scatter.
Form entry, call: pick from active, inactive

stdin: What was the test verdict on "CN1CC[C@]2(c3cccc4c3N[C@@H]3N(C)CC[C@]43[C@@]34CCN(C)[C@@H]3Nc3c([C@]56CCN(C)[C@H]5Nc5ccccc56)cccc34)c3ccccc3N[C@H]12" ?
stdout: active

stdin: Call for entry "C=C1C(=O)O[C@H]2C[C@H](C)[C@@H]3CC(=O)C(C)=C3[C@H](O)[C@H]12" :
stdout: active

stdin: Returns: the outcome recorded for CC1(C)CCC[C@]2(C)[C@@H]1CC[C@@]13C[C@@H](CC[C@H]12)C(C)(O)C3 (stereo partly drawn) in this assay.
stdout: inactive

stdin: Lab log entry: "OCc1ccc2ocnc2c1" — outcome as called in the assay?
stdout: inactive

stdin: Any idea what this test logged for C=C1C[C@@]23C=CC(=O)[C@@](C)(CCC(=O)Nc4c(O)ccc(C(=O)O)c4O)C2C[C@@H]1CC3O (stereo partly drawn) ?
stdout: inactive

stdin: Lab log entry: C=C1/C=C\C(CCC)=C\c2csc(n2)C(C)NC(=O)C[C@@]2(CC(=O)O)CCC(=C)[C@H](C1)S2 (stereo partly drawn) — outcome as called in the assay?
stdout: inactive

stdin: Record lookup: outcome of this test for "C=C[C@]1(C)CC[C@@H]([C@H](C)C(=O)/C=C/C(C)C)O1" ?
stdout: inactive

stdin: I'd appreciate the recorded outcome for Oc1ccc([C@H]2Oc3ccc(/C=C/c4cc(O)cc(O)c4)cc3C2c2cc(O)cc(O)c2)cc1 (stereo partly drawn) from this test.
stdout: inactive

###

Assay: UWB1.289 Cancer Cell Toxicity qHTS against the NCATS CANVASS Library (AID 1347347); also: nearly all actives have a fitted effect of over 60% in size
Conditions: UWB1.289 viability, CellTiter-Glo luminescence, 72 h; series mostly up to 38.3 µM
Results filed as inconclusive are left out. Activity calls are given as the source filed them. The call rests on the fitted dose curve; in most records, active means well fitted cell-killing curve with a large enough effect; inconclusive means small, poorly fitted or top-dose-only effect; inactive means flat fitted curve, though single readings scatter.
resultType: outcome

molecule: C[C@@H]1C(=O)[C@]23CC[C@H]1C[C@]21O[C@H]2C(C)(C)C=CC(=O)[C@@]23COC1=O
result: inactive
//
molecule: C=C(NC(=O)c1csc(-c2nc3c(cc2O)-c2nc(cs2)C(=O)NC(C(C)O)C(=O)N/C(=C(\C)O)c2nc(cs2)C(=O)NC2c4nc(cs4)C(=O)NC(COC(=O)c4c5c6c(cccc6n4O)COC(=O)[C@@H](OC4C[C@](C)(O)[C@H](N(C)C)[C@H](C)O4)C2OC5)c2nc-3cs2)n1)C(N)=O (stereo partly drawn)
result: inactive
//
molecule: C=C[C@@]1(C)CC[C@@H]([C@H](C)C(=O)/C=C/C(C)C)O1
result: inactive

###

Biological target: Muscarinic acetylcholine receptor M1 (Rattus norvegicus) (UniProt P08482)
Sequence (P08482 whole entry, looked up): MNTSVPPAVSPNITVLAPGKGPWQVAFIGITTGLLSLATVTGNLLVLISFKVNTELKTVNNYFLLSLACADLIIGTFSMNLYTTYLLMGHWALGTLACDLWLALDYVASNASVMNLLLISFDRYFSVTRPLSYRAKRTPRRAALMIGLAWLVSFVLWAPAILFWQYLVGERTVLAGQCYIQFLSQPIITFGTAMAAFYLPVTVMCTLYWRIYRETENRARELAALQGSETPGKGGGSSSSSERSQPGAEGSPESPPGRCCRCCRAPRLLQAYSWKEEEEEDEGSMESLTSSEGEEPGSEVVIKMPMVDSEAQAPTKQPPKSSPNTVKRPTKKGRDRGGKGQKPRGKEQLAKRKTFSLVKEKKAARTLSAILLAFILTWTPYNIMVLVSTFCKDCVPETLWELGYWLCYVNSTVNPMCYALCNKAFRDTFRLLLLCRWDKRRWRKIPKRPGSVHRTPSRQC
Test: qHTS Assay for Antagonists of Acetylcholine Muscarinic M1 Receptor: Measurement of IP-One Response (AID 944); also: nearly all actives have a fitted effect of over 75% in size; also: potency is read from the fitted curve at half-maximal effect
Settings: CHO-M1 cells, IP-One HTRF, antagonist mode; series mostly up to 46.1 µM
Records with an inconclusive call do not appear. Activity calls are given as the source filed them. The call rests on the fitted dose curve; in most records, active means well fitted inhibition curve with a large enough effect; inconclusive means small, poorly fitted or top-dose-only effect; inactive means no such curve, though single readings can be large or run the other way.
resultType: Potency

For orientation, consider the following solved cases.
smilesString: S=C(Nc1ccccc1)Nc1nccs1
resultType: Potency
result: inactive
//
smilesString: S=C(S)O[C@@H]1C[C@@H]2C[C@H]1[C@@H]1CCC[C@H]21
resultType: Potency
result: inactive
//
smilesString: C[C@@H]([C@H](O)c1ccc(O)cc1)N1CCC(Cc2ccccc2)CC1
resultType: Potency
result: 7.94 µM (active)
//
smilesString: CN(C)CCCCSC(=N)N
resultType: Potency
result: inactive

Potency for "CN1CCN(CCC=C2c3ccccc3Sc3ccc(S(=O)(=O)N(C)C)cc32)CC1" is inactive

Please fill in: Potency reported for "CC(=O)N[C@@H](C(=O)O)C(C)(C)SN=O" = inactive
